- Tested on: GENE-TOX genotoxicity assays, various organisms and cells
- TEST PROTOCOL: GENE-TOX mutagenicity studies
- TEST PARAMETERS: Species/Cell Type: Human lymphocytes; Assay Type: Sister-chromatid exchange (SCE) in vitro; Assay Code: SCLT; Evaluation Type: Evaluation B (Post-1980)
PARAMETER: mutagenic call

Please review the following examples before continuing.
1) CCCCOc1ccc(CC(=O)NO)cc1 :: no conclusion
2) Cc1cccc(O)c1C :: no conclusion
3) NCCSSCCN :: no conclusion
4) NC(=O)N1C2=CC=CCC2=C(CO)c2ccccc21 :: no conclusion

Let's switch to this compound now.
Tell me mutagenic call reported for "O=[N+]([O-])c1cnc(CO)n1CCO"
no conclusion

====

- Test system: GENE-TOX genotoxicity assays, various organisms and cells
- TEST PROTOCOL: GENE-TOX mutagenicity studies
- TEST PARAMETERS: Species/Cell Type: Salmonella typhimurium (one or more of the five standard strains: TA98, TA100, TA1535, TA1537, and TA1538); Assay Type: Histidine reverse gene mutation, Ames assay; Assay Code: SAL-; Evaluation Type: Evaluation A (Pre-1980)
Calls of active or inactive are those of the source. The rule behind the calls is not given here.
PARAMETER: mutagenic call

Solved cases below.
1) O=C(O)COc1ccc(Cl)cc1Cl :: inactive; negative
2) CC(=O)O :: inactive; negative
3) C=COC(C)=O :: inactive; negative
4) CC1CCCCC1NC(=O)Nc1ccccc1 (centres undefined) :: inactive; negative
5) ClC1=C(Cl)[C@]2(Cl)[C@@H]3[C@H]4C[C@H]([C@@H]5O[C@H]45)[C@@H]3[C@@]1(Cl)C2(Cl)Cl :: inactive; negative
6) Nc1ncn[nH]1 :: inactive; negative

Supply mutagenic call measured with GENE-TOX genotoxicity assays, various organisms and cells for "C(=C\c1ccccc1)/c1ccccc1" .
inactive; negative

Look up and report measured mutagenic call (GENE-TOX genotoxicity assays, various organisms and cells) for the following molecule: "CN(C)c1ccc(-c2ccc(N(C)C)cc2)cc1"
inactive; negative

State mutagenic call (GENE-TOX genotoxicity assays, various organisms and cells) of "Cc1cc(=O)n(-c2ccccc2)n1C" .
inactive; negative

====

- Test system: GENE-TOX genotoxicity assays, various organisms and cells
- TEST PROTOCOL: GENE-TOX mutagenicity studies
- TEST PARAMETERS: Species/Cell Type: Salmonella typhimurium; Assay Type: Forward and reverse gene mutation, body fluid assay; Assay Code: BFU-; Evaluation Type: Evaluation A (Pre-1980)
The source made the active and inactive calls. The rule behind the calls is not given here.
PARAMETER: mutagenic call

Past entries and their recorded results:
1. Cc1ccc2cc3c(ccc4ccccc43)c3c2c1CC3 :: inactive; negative
2. Nc1ccccc1-c1ccccc1 :: inactive; negative
3. COc1ccc([C@@H]2CC(=O)c3c(O)cc(O[C@@H]4O[C@H](CO)[C@@H](O)[C@H](O)[C@H]4O[C@@H]4O[C@@H](C)[C@H](O)[C@@H](O)[C@H]4O)cc3O2)cc1O :: inactive; negative
4. O=C1[C@H]2CC=CC[C@H]2C(=O)N1SC(Cl)(Cl)Cl :: inactive; negative
5. ClCC(Br)CBr (stereo not given) :: inactive; negative

Assign mutagenic call to the following record: "CC/C(=C(/CC)c1ccc(O)cc1)c1ccc(O)cc1"
inactive; negative

Identify mutagenic call associated with the compound OC[C@@H](O)C(O)[C@@H](O)CO (stereo not given in full)
inactive; negative

Could you please provide reported mutagenic call for "COS(C)(=O)=O" ? Thanks!
inactive; negative

Please list mutagenic call recorded for the compound "CNNC"
inactive; negative

Name the recorded mutagenic call of the item "O=C1CN=C(c2ccccc2Cl)c2cc([N+](=O)[O-])ccc2N1" in your answer.
inactive; negative

====

- Tested on: GENE-TOX genotoxicity assays, various organisms and cells
- TEST PROTOCOL: GENE-TOX mutagenicity studies
- TEST PARAMETERS: Species/Cell Type: Nonhuman; Assay Type: In vivo carcinogenicity studies; Assay Code: CCGT; Evaluation Type: Evaluation A (Pre-1980)
PARAMETER: call

1) Oc1ccc2ccc3c4ccccc4cc4ccc1c2c43 :: no conclusion
2) Cc1ccc2cc3c(c4c2c1CC4)[C@H](O)[C@@H](O)c1ccccc1-3 :: no conclusion
3) C[C@@H]1C[C@@H]([C@H](O)CC2CC(=O)NC(=O)C2)C(=O)[C@@H](C)C1 :: no conclusion
4) COP(=O)(OC)OC=C(Cl)Cl :: no conclusion
5) COc1ccc2nc3cc(Cl)ccc3c(NCCCNCCCl)c2c1 :: no conclusion
6) O=C(N[C@H](CO)[C@H](O)c1ccc([N+](=O)[O-])cc1)C(Cl)Cl :: no conclusion

Answer with the recorded call of CCC1CO1 (stereo not drawn) only.
no conclusion

For the compound "c1ccc2cc3ccccc3cc2c1" , report call.
no conclusion

Give recorded call. "O=c1c2ccc3cccc4c(=O)cc(c5ccccc15)-c2c34"
no conclusion

Indicate the recorded call value for this compound: "NC(=O)NO"
no conclusion

Provide call value for the following compound: "Oc1c2ccccc2c2ccc3cccc4ccc1c2c43"
no conclusion

State its call for this compound: "CS(C)=O"
no conclusion

Please look at this compound and report its call: "Oc1cc2cccc3ccc4c5ccccc5cc1c4c32"
no conclusion

====

- Test system: GENE-TOX genotoxicity assays, various organisms and cells
- TEST PROTOCOL: GENE-TOX mutagenicity studies
- TEST PARAMETERS: Species/Cell Type: Human; Assay Type: Sister-chromatid exchange (SCE) in vitro; Assay Code: SC1+; Evaluation Type: Evaluation B (Post-1980)
Activity calls are given as the source filed them. No rule for the calls is given here.
PARAMETER: mutagenic call

The examples below pair each entry with its known result.
1. CCc1ccccc1 :: active; positive
2. CCOP(=S)(OCC)SCSc1ccc(Cl)cc1 :: active; positive
3. COc1c2occc2cc2ccc(=O)oc12 :: active; positive
4. ClCc1ccccc1 :: active; positive
5. Cc1nc(N)cc2c1[nH]c1ccccc12 :: active; positive
6. CC(C)CC=O :: active; positive
7. Nc1ccc(/C=C/c2ccc([N+](=O)[O-])o2)nn1 :: active; positive
8. O=C(O)CNCP(=O)(O)O :: active; positive
9. Nc1ccc2cc3ccc(N)cc3nc2c1 :: active; positive
10. F :: active; positive

Now for the compound whose mutagenic call we want.
Given the compound "CCCCCCCCCCCCCC(=O)O[C@@H]1[C@@H](C)[C@@]2(O)[C@@H](C=C(CO)C[C@]3(O)C(=O)C(C)=C[C@@H]23)[C@@H]2C(C)(C)[C@]12OC(C)=O" , write its reported mutagenic call.
active; positive

====

- Test system: GENE-TOX genotoxicity assays, various organisms and cells
- TEST PROTOCOL: GENE-TOX mutagenicity studies
- TEST PARAMETERS: Species/Cell Type: Nonhuman; Assay Type: Sister-chromatid exchange (SCE) in vitro; Assay Code: SC2T; Evaluation Type: Evaluation B (Post-1980)
PARAMETER: mutagenic call

1. CCOP(=S)(OCC)SCCSCC :: no conclusion
2. CC(=O)c1c(=O)cc(C)oc1=O :: no conclusion
3. CC(=O)Nc1cccc2c1-c1ccccc1C2 :: no conclusion

====

- Tested on: GENE-TOX genotoxicity assays, various organisms and cells
- TEST PROTOCOL: GENE-TOX mutagenicity studies
- TEST PARAMETERS: Species/Cell Type: Saccharomyces cerevisiae; Assay Type: Reverse gene mutation; Assay Code: YERT; Evaluation Type: Evaluation A (Pre-1980)
PARAMETER: mutagenic call

Examples from the recorded data:
1) COC(=O)COc1ccc(Cl)cc1CCl (tested in a mixture with another compound) :: no conclusion
2) CCCOc1ccc(CC(=O)NN)cc1CN(CC)CC :: no conclusion
3) COc1ccc(/C=N/NC(=O)COc2ccc(Br)cc2CN(C)C)cc1 :: no conclusion
4) COc1cc(/C=N/NC(=O)COc2ccc(Br)cc2CN2CCOCC2)ccc1O :: no conclusion

GET mutagenic call | system: GENE-TOX genotoxicity assays, various organisms and cells | item: "CCN(CC)Cc1cc(CC(=O)NN)ccc1OC"
no conclusion

====

- Tested on: GENE-TOX genotoxicity assays, various organisms and cells
- TEST PROTOCOL: GENE-TOX mutagenicity studies
- TEST PARAMETERS: Species/Cell Type: Escherichia coli polA (W3110 vs P3478); Assay Type: Rec-assay, DNA effects (bacterial DNA repair); Assay Code: RE2-; Evaluation Type: Evaluation A (Pre-1980)
Active and inactive are the calls of the source. The rule behind the calls is not given here.
PARAMETER: mutagenic call

1. Cc1cccc(N=Nc2ccc(N(C)C)cc2)c1 :: inactive; negative
2. NC(N)=S :: inactive; negative
3. CS(C)=O :: inactive; negative

====

- System: GENE-TOX genotoxicity assays, various organisms and cells
- TEST PROTOCOL: GENE-TOX mutagenicity studies
- TEST PARAMETERS: Species/Cell Type: Nonhuman; Assay Type: In vivo carcinogenicity studies; Assay Code: CCG-; Evaluation Type: Evaluation A (Pre-1980)
The source made the active and inactive calls. The rule behind the calls is not given here.
PARAMETER: call

Worked examples follow.
1) Nc1ccc([N+](=O)[O-])cc1N :: inactive; negative
2) CCOP(=S)(OCC)Oc1cc(C)nc(C(C)C)n1 :: inactive; negative
3) Nc1cc([N+](=O)[O-])ccc1C(=O)O :: inactive; negative
4) CN(C)c1ccc(N=NS(=O)(=O)O)cc1 :: inactive; negative
5) O=S(=O)(O)c1ccc(N=Nc2c(O)ccc3cc(S(=O)(=O)O)ccc23)cc1 :: inactive; negative
6) CCN(CC)C(=S)S :: inactive; negative
7) O=C1CCCCCN1 :: inactive; negative
8) O=C(O)CN(CCN(CC(=O)O)CC(=O)O)CC(=O)O :: inactive; negative
9) C[N+](C)(C)CCCl :: inactive; negative
10) CCOP(=S)(OCC)SC1OCCOC1SP(=S)(OCC)OCC (stereo not drawn) :: inactive; negative

State call on GENE-TOX genotoxicity assays, various organisms and cells. Entry: "Oc1cccc2cccnc12"
inactive; negative

Specify call for "NC(=O)c1ccccc1C(N)=O" , system GENE-TOX genotoxicity assays, various organisms and cells.
inactive; negative

State, for GENE-TOX genotoxicity assays, various organisms and cells, measured call of the compound listed here: "Cc1ccc(N)cc1Cl"
inactive; negative
